Target: Gamma-secretase (Homo sapiens) (UniProt Q96BI3+Q9NZ42+Q8WW43+P49768+Q92542+P49810)
Test: Inhibition of gamma-secretase (unknown origin) expressed in N2a NL/N cells coexpressing betaAPPNL and NotchdeltaE assessed as Abeta42 secretion at 100 nM by ELISA
Type: cell-based
Active and inactive are the calls of the source. The rule behind the calls is not given here.
Tick one outcome: true = active, false = inactive

Look over these answered cases.
INSERT INTO assay_data (molecule, qualitative_label) VALUES
  ('CC(=O)N[C@H]1CCC[C@@H]1C(=O)N[C@H]1CCC[C@@H]1C(=O)N[C@H](CC(=O)N[C@H]1CCC[C@@H]1C(=O)N[C@H]1CCC[C@@H]1C(=O)N[C@H]1CCC[C@@H]1C(=O)N[C@H]1CCC[C@@H]1C(=O)N[C@H]1CCC[C@@H]1C(=O)N[C@H]1CCC[C@@H]1C(=O)N[C@H]1CCC[C@@H]1C(=O)N[C@H]1CCC[C@@H]1C(=O)N[C@H]1CCC[C@@H]1C(N)=O)Cc1ccc(O)cc1', 'false'),
  ('CC(=O)N[C@H]1CCC[C@@H]1C(=O)N[C@H]1CCC[C@@H]1C(=O)N[C@H]1CCC[C@@H]1C(=O)N[C@H]1CCC[C@@H]1C(=O)N[C@H]1CCC[C@@H]1C(=O)N[C@H]1CCC[C@@H]1C(=O)N[C@H]1CCC[C@@H]1C(=O)N[C@H]1CCC[C@@H]1C(=O)NC(CO)CC(=O)N[C@H]1CCC[C@@H]1C(=O)N[C@H]1CCC[C@@H]1C(=O)N[C@H]1CCC[C@@H]1C(N)=O (single isomer, unassigned)', 'false'),
  ('CC(=O)N[C@H]1CCC[C@@H]1C(=O)N[C@H]1CCC[C@@H]1C(=O)N[C@H]1CCC[C@@H]1C(=O)N[C@H]1CCC[C@@H]1C(=O)N[C@H]1CCC[C@@H]1C(=O)N[C@H]1CCC[C@@H]1C(=O)N[C@H]1CCC[C@@H]1C(=O)N[C@H]1CCC[C@@H]1C(=O)N[C@@H](CCC(N)=O)CC(=O)N[C@H]1CCC[C@@H]1C(=O)N[C@H]1CCC[C@@H]1C(=O)N[C@H]1CCC[C@@H]1C(N)=O', 'false');

Status in this test for CC(=O)N[C@H]1CCC[C@@H]1C(=O)N[C@H]1CCC[C@@H]1C(=O)N[C@H]1CCC[C@@H]1C(=O)N[C@H]1CCC[C@@H]1C(=O)N[C@H]1CCC[C@@H]1C(=O)N[C@@H](CCC(N)=O)CC(=O)N[C@H]1CCC[C@@H]1C(=O)N[C@H]1CCC[C@@H]1C(=O)N[C@H]1CCC[C@@H]1C(=O)N[C@H]1CCC[C@@H]1C(=O)N[C@H]1CCC[C@@H]1C(=O)N[C@H]1CCC[C@@H]1C(N)=O ?
false

Returns: the outcome recorded for CC(=O)N[C@H]1CCC[C@@H]1C(=O)N[C@H]1CCC[C@@H]1C(=O)N[C@H]1CCC[C@@H]1C(=O)N[C@H]1CCC[C@@H]1C(=O)N[C@H]1CCC[C@@H]1C(=O)N[C@H]1CCC[C@@H]1C(=O)N[C@H]1CCC[C@@H]1C(=O)N[C@H]1CCC[C@@H]1C(=O)N[C@H](CC(=O)N[C@H]1CCC[C@@H]1C(=O)N[C@H]1CCC[C@@H]1C(=O)N[C@H]1CCC[C@@H]1C(N)=O)Cc1ccc(O)cc1 in this assay.
false

Given CC(=O)N[C@H]1CCC[C@@H]1C(=O)N[C@H]1CCC[C@@H]1C(=O)N[C@H]1CCC[C@@H]1C(=O)N[C@H]1CCC[C@@H]1C(=O)N[C@H]1CCC[C@@H]1C(=O)N[C@H](CO)CC(=O)N[C@H]1CCC[C@@H]1C(=O)N[C@H]1CCC[C@@H]1C(=O)N[C@H]1CCC[C@@H]1C(=O)N[C@H]1CCC[C@@H]1C(=O)N[C@H]1CCC[C@@H]1C(=O)N[C@H]1CCC[C@@H]1C(N)=O , state the outcome it received in this test.
false
